assay: Selectivity index, ratio of IC50 for antiproliferative activity against human MCF-10A cells to IC50 for antiproliferative activity against human MDA-MB-231 cells by MTT assay; type: toxicity, cell-based; details: MCF-10A cells versus MDA-MB-231 cells, read-out: Ratio IC50
rule met means recorded selectivity ratio is 2 or above; rule not met means it is below 2.

Enquiry: Threshold query (selectivity ratio >= 2) on "CCCCCCCCCOC(=O)/C=C\C=C/[C@H](C)[C@H]1CC[C@]2(C)C[C@@H]3C(C)=CC(=O)[C@H]3/C(C=O)=C\C[C@@H]12"
Return: rule not met

New cases:
Enquiry: Please tell me: is the compound "CCCCCCCCCCOC(=O)/C=C/[C@H](C)[C@H]1CC[C@]2(C)C[C@@H]3C(C)=CC(=O)[C@H]3/C(C=O)=C\C[C@@H]12" at or over 2 in terms of selectivity ratio?
Return: rule not met

Enquiry: # bool: selectivity ratio of "CC1=CC(=O)[C@H]2/C(C=O)=C\C[C@H]3[C@@H]([C@@H](C)/C=C\C=C/C(=O)OCCOCCOC(=O)CC45CC6CC(CC(C6)C4)C5)CC[C@]3(C)C[C@H]12" >= 2
Return: rule met

Enquiry: Is selectivity ratio for "CC(C)=C/C=C\[C@H](C)[C@H]1CC[C@]2(C)C[C@@H]3C(C)=CC(=O)[C@H]3/C(C=O)=C\C[C@@H]12" at or above 2?
Return: rule not met
